Reported caspase-3 activation values follow for various molecules
- protocol.summary: Cellular Toxicity (caspase-3) Hek293 (AID 664);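 note: cells exposed to compound for 16 h at 37 °C before readout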
- condition.notes: HEK293 caspase-3 activation, DMSO = 0%, 100 µM tamoxifen = 100%; at 92.2 µM (top of the series)
Results filed as inconclusive are left out.
Note: unit % is implicit; provide only the numeric part.

Use these answered entries as a reference point.
CC(C)OCC1CO1 (stereo not drawn) ... -0.484
Nc1ccc(N=Nc2ccccc2)c(N)c1 ... -11.8
COc1ccc(C(=O)Nc2ccccc2)cc1[N+](=O)[O-] ... -1.89
C=CC(=O)CC ... 0.103
CC(=O)Nc1cccc(C)c1 ... -2.37
c1ccc(COCc2ccccc2)cc1 ... 2.76
CCNC(=S)NCC ... -2.38
CC/C=C/C/C=C/C/C=C/CCCCCCCC(=O)OCC ... 7.96

I am curious: what caspase-3 activation value has been reported for `CCN(CC)c1ccc(N)cc1` ?
18.6

I am curious: what caspase-3 activation value has been reported for `Nc1cc([N+](=O)[O-])ccc1O` ?
-0.467

I am curious: what caspase-3 activation value has been reported for CCCCC(CC)COP(=O)(OCC(CC)CCCC)OCC(CC)CCCC (stereo not drawn) ?
2.89

I am curious: what caspase-3 activation value has been reported for `O=C(O)c1cc(N=Nc2ccc([N+](=O)[O-])cc2)ccc1O` ?
-10.9

I am curious: what caspase-3 activation value has been reported for CC(=O)OC1CC(C)OC(C)O1 (stereo not drawn) ?
2.93
